Origin of measurements: paper PMC11190929

This section presents compounds with their documented KSV values.
# assayed-target: MARK4 (Homo sapiens, UniProt Q96L34)
# Sequence (Q96L34 59-368): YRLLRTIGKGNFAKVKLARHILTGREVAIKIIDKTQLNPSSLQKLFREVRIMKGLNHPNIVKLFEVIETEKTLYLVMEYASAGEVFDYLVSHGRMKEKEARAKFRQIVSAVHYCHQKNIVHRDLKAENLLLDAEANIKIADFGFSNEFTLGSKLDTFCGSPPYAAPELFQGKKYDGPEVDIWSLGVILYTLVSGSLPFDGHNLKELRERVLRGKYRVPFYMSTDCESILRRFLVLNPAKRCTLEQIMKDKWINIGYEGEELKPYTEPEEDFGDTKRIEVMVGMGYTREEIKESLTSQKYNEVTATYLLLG
# assay-procedure: Fluorescence binding studies
# experimental-context: fluorescence quenching, Stern-Volmer

Some solved entries appear below for comparison.
COc1cc(C(=O)N/N=C2\C(=O)Nc3c(C)cc(C)cc32)ccc1O    1.0 × 10^5 M^–1
COc1cc(C(=O)N/N=C2\C(=O)Nc3c2cccc3[N+](=O)[O-])ccc1O    0.6 × 10^5 M^–1
COc1cc(C(=O)N/N=C2\C(=O)Nc3ccccc32)ccc1O    3.9 × 10^5 M^–1
COc1cc(C(=O)N/N=C2\C(=O)Nc3ccc(Br)cc32)ccc1O    1.7 × 10^5 M^–1

Query: Can you look up KSV on MARK4 (Homo sapiens, UniProt Q96L34) for COc1cc(C(=O)N/N=C2\C(=O)Nc3c(Cl)cccc32)ccc1O ?
Result: 1.0 × 10^5 M^–1

Query: Can you look up KSV on MARK4 (Homo sapiens, UniProt Q96L34) for COc1ccc2c(c1)NC(=O)/C2=N\NC(=O)c1ccc(O)c(OC)c1 ?
Result: 0.8 × 10^5 M^–1

Query: Can you look up KSV on MARK4 (Homo sapiens, UniProt Q96L34) for COc1ccc2c(c1)/C(=N/NC(=O)c1ccc(O)c(OC)c1)C(=O)N2 ?
Result: 3.8 × 10^5 M^–1

Query: Can you look up KSV on MARK4 (Homo sapiens, UniProt Q96L34) for COc1cc(C(=O)N/N=C2\C(=O)Nc3cc(F)ccc32)ccc1O ?
Result: 1.8 × 10^5 M^–1

Query: Can you look up KSV on MARK4 (Homo sapiens, UniProt Q96L34) for COc1cc(C(=O)N/N=C2\C(=O)Nc3cc(Cl)c(F)cc32)ccc1O ?
Result: 0.8 × 10^5 M^–1

Query: Can you look up KSV on MARK4 (Homo sapiens, UniProt Q96L34) for COc1cc(C(=O)N/N=C2\C(=O)Nc3ccc(C)cc32)ccc1O ?
Result: 3.7 × 10^5 M^–1

Query: Can you look up KSV on MARK4 (Homo sapiens, UniProt Q96L34) for COc1cc(C(=O)N/N=C2\C(=O)Nc3ccc(Cl)cc32)ccc1O ?
Result: 1.4 × 10^5 M^–1

Query: Can you look up KSV on MARK4 (Homo sapiens, UniProt Q96L34) for COc1cc(C(=O)N/N=C2\C(=O)Nc3cc(Cl)ccc32)ccc1O ?
Result: 1.8 × 10^5 M^–1
